EXPERIMENTAL ENDPOINT: melting point (°C)

COc1cc(C2CC3(ON2c2ccccc2)C(=O)O[C@@H]2[C@H]3CC[C@H](C)[C@]3(O)C=CC(=O)[C@@]23C)cc(OC)c1OC (stereo partly drawn) [Compound -29]	119
Cc1cc(C2CC3(ON2c2ccccc2)C(=O)O[C@@H]2[C@H]3CC[C@H](C)[C@]3(O)C=CC(=O)[C@@]23C)cc(C)c1O (stereo partly drawn) [Compound -30]	108

====

tested on: SW-620; test: In vitro cytotoxicity screening (sulphodamine B dye), SW-620; type: cell-based; conditions: Homo sapiens; SW-620 colon cancer cell line
EXPERIMENTAL ENDPOINT: IC50 (µM)
All answers are understood in µM, so give the number only.

Would you please look over these solved cases?
COc1ccc(C2CC3(ON2c2ccccc2)C(=O)O[C@@H]2[C@H]3CC[C@H](C)[C@]3(O)C=CC(=O)[C@@]23C)cc1Br (some centres unmarked) [Compound -25]	6.8
C[C@H]1CC[C@@H]2[C@@H](OC(=O)C23CC(c2ccc(C#N)cc2)=NO3)[C@]2(C)C(=O)C=C[C@@]12O (some centres unmarked) [Compound -16]	53

Record C[C@H]1CC[C@@H]2[C@@H](OC(=O)C23CC(c2ccc(Br)cc2)N(c2ccccc2)O3)[C@]2(C)C(=O)C=C[C@@]12O (some centres unmarked) [Compound -20] , field IC50: 6.7

Record Cc1cccc(N2CC23C(=O)O[C@@H]2[C@H]3CC[C@H](C)[C@@]3(O)C=CC(=O)[C@@]23C)c1 (some centres unmarked) [Compound -38] , field IC50: 15

Record C=C1C(=O)O[C@@H]2[C@H]1CC[C@H](C)[C@]1(O)C=CC(=O)[C@@]21C [Parthenin] , field IC50: 38.7

Record C[C@H]1CC[C@@H]2[C@@H](OC(=O)C23CC(c2ccc(Cl)cc2)=NO3)[C@]2(C)C(=O)C=C[C@@]12O (some centres unmarked) [Compound -2] , field IC50: 51

Record C[C@H]1CC[C@@H]2[C@@H](OC(=O)C23CN3c2ccccc2)[C@]2(C)C(=O)C=C[C@@]12O (some centres unmarked) [Compound -34] , field IC50: 87.7

Record COc1ccccc1N1CC12C(=O)O[C@@H]1[C@H]2CC[C@H](C)[C@]2(O)C=CC(=O)[C@@]12C (some centres unmarked) [Compound -37] , field IC50: 47.3

====

system: SW-620; test: In vitro cytotoxicity screening (sulphodamine B dye), SW-620; assay type: cell-based; conditions: Homo sapiens; SW-620 colon cancer cell line
Here, each record is paired with measured pIC50 data.
Would you please state pIC50, meaning minus log10 of the concentration in mol/L, as a bare number?

Would you please look over these solved cases?
Cc1ccc(C2CC3(ON2c2ccccc2)C(=O)O[C@@H]2[C@H]3CC[C@H](C)[C@]3(O)C=CC(=O)[C@@]23C)cc1 (stereo partly drawn) [Compound -21]	5.06
C[C@H]1CC[C@@H]2[C@@H](OC(=O)C23CC(c2ccc(Cl)cc2)N(c2ccccc2)O3)[C@]2(C)C(=O)C=C[C@@]12O (stereo partly drawn) [Compound -18]	5.12

Please look at the following molecule next.
Record COc1ccc(Br)cc1C1CC2(ON1c1ccccc1)C(=O)O[C@@H]1[C@H]2CC[C@H](C)[C@]2(O)C=CC(=O)[C@@]12C (stereo partly drawn) [Compound -27] , field pIC50: 5.21

====

EXPERIMENTAL ENDPOINT: melting point (°C)

Would you please look over these solved cases?
C[C@H]1CC[C@@H]2[C@@H](OC(=O)C23CC(c2ccc(F)cc2)=NO3)[C@]2(C)C(=O)C=C[C@@]12O (stereo partly shown)	193
C[C@H]1CC[C@@H]2[C@@H](OC(=O)C23CC(c2ccc(C#N)cc2)=NO3)[C@]2(C)C(=O)C=C[C@@]12O (stereo partly shown)	147
COc1ccc(C2CC3(ON2c2ccccc2)C(=O)O[C@@H]2[C@H]3CC[C@H](C)[C@]3(O)C=CC(=O)[C@@]23C)cc1Br (stereo partly shown)	96
Cc1ccccc1C1CC2(ON1c1ccccc1)C(=O)O[C@@H]1[C@H]2CC[C@H](C)[C@]2(O)C=CC(=O)[C@@]12C (stereo partly shown)	181
C[C@H]1CC[C@@H]2[C@@H](OC(=O)C23CC(c2ccc(Cl)cc2)=NO3)[C@]2(C)C(=O)C=C[C@@]12O (stereo partly shown)	138.2
C[C@H]1CC[C@@H]2[C@@H](OC(=O)C23CC(c2ccccc2)N(c2ccccc2)O3)[C@]2(C)C(=O)C=C[C@@]12O (stereo partly shown)	170

(I) Cc1ccc(C2CC3(ON2c2ccccc2)C(=O)O[C@@H]2[C@H]3CC[C@H](C)[C@]3(O)C=CC(=O)[C@@]23C)cc1 (stereo partly shown)
(II) COc1ccc(Br)cc1C1CC2(ON1c1ccccc1)C(=O)O[C@@H]1[C@H]2CC[C@H](C)[C@]2(O)C=CC(=O)[C@@]12C (stereo partly shown)
q: Which of the two gives a bigger number for melting point: I or II ? Identify your selection by its label.
a: II

====

EXPERIMENTAL ENDPOINT: melting point (°C)

Would you please look over these solved cases?
COc1ccccc1C1CC2(ON1c1ccccc1)C(=O)O[C@@H]1[C@H]2CC[C@H](C)[C@]2(O)C=CC(=O)[C@@]12C (stereo partly drawn)	111
C[C@H]1CC[C@@H]2[C@@H](OC(=O)C23CC(c2cccc(Cl)c2)N(c2ccccc2)O3)[C@]2(C)C(=O)C=C[C@@]12O (stereo partly drawn)	180

(P) COc1ccc(C2=NOC3(C2)C(=O)O[C@@H]2[C@H]3CC[C@H](C)[C@]3(O)C=CC(=O)[C@@]23C)cc1OC (stereo partly drawn)
(Q) Cc1ccccc1C1=NOC2(C1)C(=O)O[C@@H]1[C@H]2CC[C@H](C)[C@]2(O)C=CC(=O)[C@@]12C (stereo partly drawn)
q: Which of the two gives a bigger number for melting point: P or Q ? Identify your selection by its label.
a: Q

====

EXPERIMENTAL ENDPOINT: melting point (°C)

C[C@H]1CC[C@@H]2[C@@H](OC(=O)C23CC(c2ccccc2[N+](=O)[O-])C(c2ccccc2)O3)[C@]2(C)C(=O)C=C[C@@]12O (stereo partly shown) [Compound -32]	158
C[C@H]1CC[C@@H]2[C@@H](OC(=O)C23CC(c2ccc(C#N)cc2)N(c2ccccc2)O3)[C@]2(C)C(=O)C=C[C@@]12O (stereo partly shown) [Compound -26]	116
C[C@H]1CC[C@@H]2[C@@H](OC(=O)C23CC(c2ccc(Br)cc2)N(c2ccccc2)O3)[C@]2(C)C(=O)C=C[C@@]12O (stereo partly shown) [Compound -20]	185
C[C@H]1CC[C@@H]2[C@@H](OC(=O)C23CC(c2ccc(F)cc2)N(c2ccccc2)O3)[C@]2(C)C(=O)C=C[C@@]12O (stereo partly shown) [Compound -24]	154

====

Here, each record is paired with measured pIC50 data.
tested on: SW-620; test: In vitro cytotoxicity screening (sulphodamine B dye), SW-620; assay type: cell-based; details: Homo sapiens; SW-620 colon cancer cell line
Would you please state pIC50, meaning minus log10 of the concentration in mol/L, as a bare number?

Cc1ccccc1C1=NOC2(C1)C(=O)O[C@@H]1[C@H]2CC[C@H](C)[C@]2(O)C=CC(=O)[C@@]12C (stereo partly drawn) [Compound -13]	5.30
COc1cc(C2CC3(ON2c2ccccc2)C(=O)O[C@@H]2[C@H]3CC[C@H](C)[C@]3(O)C=CC(=O)[C@@]23C)cc(OC)c1OC (stereo partly drawn) [Compound -29]	5.24

With SW-620 as the test system, C[C@H]1CC[C@@H]2[C@@H](OC(=O)C23CC(c2c4ccccc4cc4ccccc24)=NO3)[C@]2(C)C(=O)C=C[C@@]12O (stereo partly drawn) [Compound -17] showed pIC50 of 5.37

====

Here, each record is paired with measured pIC50 data.
tested on: SW-620; experiment: In vitro cytotoxicity screening (sulphodamine B dye), SW-620; assay type: cell-based; settings: Homo sapiens; SW-620 colon cancer cell line
Would you please state pIC50, meaning minus log10 of the concentration in mol/L, as a bare number?

Record C[C@H]1CC[C@@H]2[C@@H](OC(=O)C23CC(c2ccccc2[N+](=O)[O-])C(c2ccccc2)O3)[C@]2(C)C(=O)C=C[C@@]12O (stereo partly drawn) , field pIC50: 4.89

Record C[C@H]1CC[C@@H]2[C@@H](OC(=O)C23CC(c2ccccc2)N(c2ccccc2)O3)[C@]2(C)C(=O)C=C[C@@]12O (stereo partly drawn) , field pIC50: 5.24

====

EXPERIMENTAL ENDPOINT: melting point (°C)

C[C@H]1CC[C@@H]2[C@@H](OC(=O)C23CC(c2ccc(Cl)cc2)N(c2ccccc2)O3)[C@]2(C)C(=O)C=C[C@@]12O (some centres unmarked)	183
COc1ccc(C2CC3(ON2c2ccccc2)C(=O)O[C@@H]2[C@H]3CC[C@H](C)[C@]3(O)C=CC(=O)[C@@]23C)c(OC)c1 (some centres unmarked)	99
C[C@H]1CC[C@@H]2[C@@H](OC(=O)C23CC(c2ccc(O)cc2)=NO3)[C@]2(C)C(=O)C=C[C@@]12O (some centres unmarked)	129.2
